testTarget: Rolf G204W CNG channel (Rattus norvegicus, UniProt Q00195, G204W)
Sequence (Q00195 whole entry G204W): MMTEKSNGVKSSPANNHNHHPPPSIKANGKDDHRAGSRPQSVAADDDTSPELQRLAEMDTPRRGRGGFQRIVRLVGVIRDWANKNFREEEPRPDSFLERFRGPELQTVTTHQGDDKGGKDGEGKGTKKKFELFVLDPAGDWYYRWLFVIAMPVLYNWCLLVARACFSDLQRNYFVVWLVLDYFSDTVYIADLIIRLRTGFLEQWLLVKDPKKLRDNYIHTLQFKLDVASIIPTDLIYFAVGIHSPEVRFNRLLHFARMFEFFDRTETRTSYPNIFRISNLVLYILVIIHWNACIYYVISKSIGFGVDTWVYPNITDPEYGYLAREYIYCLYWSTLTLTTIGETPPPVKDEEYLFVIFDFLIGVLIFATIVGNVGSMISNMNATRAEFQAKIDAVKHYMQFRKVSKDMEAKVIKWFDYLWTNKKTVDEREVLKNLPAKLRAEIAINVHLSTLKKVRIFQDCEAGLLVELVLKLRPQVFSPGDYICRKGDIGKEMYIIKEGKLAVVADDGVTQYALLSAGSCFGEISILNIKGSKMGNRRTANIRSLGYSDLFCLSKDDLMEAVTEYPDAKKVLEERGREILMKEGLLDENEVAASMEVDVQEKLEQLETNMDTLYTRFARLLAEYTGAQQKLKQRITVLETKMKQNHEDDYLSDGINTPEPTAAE
Type: cell-based
conditionDescription: read-out: cGMP K1/2 (half-maximal activation); Rolf G204W; +100 mV; averaged data from six patches
pEC50: −log10 of the molar value.

>  <compoundStructure>
Nc1nc2c(ncn2[C@@H]2O[C@@H]3COP(=O)(O)O[C@H]3[C@H]2O)c(=O)[nH]1

>  <pEC50>
4.85

$$$$

====

testTarget: Rolf G204D CNG channel (Rattus norvegicus, UniProt Q00195, G204D)
Sequence (Q00195 whole entry G204D): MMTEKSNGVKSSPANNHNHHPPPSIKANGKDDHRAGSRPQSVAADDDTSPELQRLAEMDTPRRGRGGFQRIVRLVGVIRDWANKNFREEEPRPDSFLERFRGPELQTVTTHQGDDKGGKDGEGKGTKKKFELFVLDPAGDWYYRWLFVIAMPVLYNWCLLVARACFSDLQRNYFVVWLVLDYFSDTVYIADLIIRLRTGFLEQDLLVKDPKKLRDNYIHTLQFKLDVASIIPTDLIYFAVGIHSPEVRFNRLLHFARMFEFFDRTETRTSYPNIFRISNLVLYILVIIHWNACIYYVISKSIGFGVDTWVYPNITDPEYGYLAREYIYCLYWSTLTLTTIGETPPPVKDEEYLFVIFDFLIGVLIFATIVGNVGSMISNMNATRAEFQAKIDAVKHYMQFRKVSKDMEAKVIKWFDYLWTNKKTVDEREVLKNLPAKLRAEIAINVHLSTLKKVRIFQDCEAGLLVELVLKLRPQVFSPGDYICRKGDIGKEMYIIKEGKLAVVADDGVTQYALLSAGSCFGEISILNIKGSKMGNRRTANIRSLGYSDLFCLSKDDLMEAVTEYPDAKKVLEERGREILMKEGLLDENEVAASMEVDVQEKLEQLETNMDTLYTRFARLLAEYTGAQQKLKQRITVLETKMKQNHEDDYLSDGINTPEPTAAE
pIC50: −log10 of the molar value.
recordedEndpoint: pIC50

>  <compoundStructure>
CCCCNc1ccc(C(=O)OCCN(C)C)cc1

>  <recordedEndpoint>
pIC50

>  <readoutValue>
4.97

$$$$

====

Protein target, amino acids: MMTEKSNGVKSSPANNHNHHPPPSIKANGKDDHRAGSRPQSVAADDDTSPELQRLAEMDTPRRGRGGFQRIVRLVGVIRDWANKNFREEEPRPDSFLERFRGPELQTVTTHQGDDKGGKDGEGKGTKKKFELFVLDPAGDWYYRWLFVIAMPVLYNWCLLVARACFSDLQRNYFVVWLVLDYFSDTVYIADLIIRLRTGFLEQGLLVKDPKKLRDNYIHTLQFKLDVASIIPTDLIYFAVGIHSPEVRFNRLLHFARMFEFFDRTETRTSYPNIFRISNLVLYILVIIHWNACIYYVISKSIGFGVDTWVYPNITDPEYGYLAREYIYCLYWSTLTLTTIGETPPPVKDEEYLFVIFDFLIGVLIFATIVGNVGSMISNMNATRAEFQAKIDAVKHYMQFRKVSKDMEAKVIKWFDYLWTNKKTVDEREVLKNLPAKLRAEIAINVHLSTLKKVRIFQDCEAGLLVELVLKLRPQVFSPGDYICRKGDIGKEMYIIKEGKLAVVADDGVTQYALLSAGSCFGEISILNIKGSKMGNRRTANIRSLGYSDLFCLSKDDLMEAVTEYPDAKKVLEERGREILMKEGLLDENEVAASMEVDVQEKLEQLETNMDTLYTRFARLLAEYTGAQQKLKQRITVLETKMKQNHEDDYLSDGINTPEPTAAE

>  <compoundStructure>
CCCCNc1ccc(C(=O)OCCN(C)C)cc1

>  <IC50 (µM)>
140

$$$$

====

testTarget: Rolf G204W CNG channel (Rattus norvegicus, UniProt Q00195, G204W)

>  <compoundStructure>
CCCCNc1ccc(C(=O)OCCN(C)C)cc1

>  <testTarget>
Rolf G204W CNG channel (Rattus norvegicus, UniProt Q00195, G204W)

>  <IC50>
2200 nM

$$$$
